Documented GI50 across a set of compounds
# Test system: CCRF-CEM
# assay.notes: NCI tumour cell line growth inhibition, 48 h
The source made the active and inactive calls. Cut-off read from the data, not from the text of the source: active = GI50 up to about 1.1 µM and inactive = higher.

[Q] Report GI50 for Cn1c2ccccc2c2[nH]cc3nc4ccccc4c-3c21 please.
[A] 30.8 µM (inactive)

[Q] Report GI50 for CNS(=O)(=O)NNS(=O)(=O)c1ccc(F)cc1 please.
[A] > 100 µM (inactive)

[Q] Report GI50 for CCOC(=O)n1c2ccccc2c(=O)n1CCO please.
[A] > 100 µM (inactive)

[Q] Report GI50 for COc1cc(C2OC(N)=C(C#N)C3=C2C(C)CCC3)cc(OC)c1OC (stereo unspecified) please.
[A] > 100 µM (inactive)

[Q] Report GI50 for COC(C/C=C\C=C\CC/C=C/CC(C)/C=C/C(=C\C(=O)O)CC(=O)O)/C(C)=C\C=C(/C)C(=O)O (stereo unspecified) please.
[A] > 100 µM (inactive)

[Q] Report GI50 for COc1c(C(=O)O)oc2c(OC)cccc12 please.
[A] > 100 µM (inactive)
